Assay: Stability of each chemical component in rat plasma
Format: in vitro ADME
Details: 10 ng/mL, room temperature for 24 h
assay_endpoint: Stability S (%)
Please respond with the number in % and leave the unit unwritten.

Below: 4 compounds and their reported Stability S.
O=C(O)c1cc(O)c2c(c1)C(=O)c1cccc(O)c1C2=O [Rh, Rhein]: 106.20
Cc1cc(O)c2c(c1)C(=O)c1cccc(O)c1C2=O [Ch, Chrysophanol]: 114
Cc1cc(O)c2c(c1)C(=O)c1cc(O)cc(O)c1C2=O [Em, Emodin]: 104.60
O=C1c2cccc(O)c2C(=O)c2c(O)cc(CO)cc21 [Ae, Aloe emodin]: 99.60

Stability S in this record for COc1cc(O)c2c(c1)C(=O)c1cc(C)cc(O)c1C2=O [Ph, Physcion] : 103

Data provenance: paper PMC10874764
